Measured Luciferase activity RARα accompanies every entry in the list below.
# systemName: RARα (Homo sapiens, UniProt P10276)
# Construct: expressed in transfected cells; host or cells: CV-1 cells (ATCC)
# Sequence (P10276 1-462): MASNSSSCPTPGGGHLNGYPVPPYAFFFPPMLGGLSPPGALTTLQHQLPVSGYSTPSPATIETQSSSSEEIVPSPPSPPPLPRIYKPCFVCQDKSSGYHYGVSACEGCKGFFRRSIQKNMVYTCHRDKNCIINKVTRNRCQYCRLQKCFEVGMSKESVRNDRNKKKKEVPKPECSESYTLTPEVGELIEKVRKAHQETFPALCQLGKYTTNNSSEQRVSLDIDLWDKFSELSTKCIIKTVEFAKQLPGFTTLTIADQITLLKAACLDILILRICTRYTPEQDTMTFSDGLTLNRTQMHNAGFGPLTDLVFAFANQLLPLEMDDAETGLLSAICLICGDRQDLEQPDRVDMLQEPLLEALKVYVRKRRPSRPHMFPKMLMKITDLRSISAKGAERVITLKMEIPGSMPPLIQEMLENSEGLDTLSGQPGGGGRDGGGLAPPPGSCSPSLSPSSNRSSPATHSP
# experiment: RARE-luciferase reporter assay in transfected CV-1 cells (affinity to retinoic acid receptor), RARα
# Assay type: cell-based
# conditionContext: treated 24 hours at final concentration 10^−4M, control group 1000
Hey, just send me the number, nothing else.

See these solved cases before continuing.
O=C(Cc1ccc(NC(=O)c2ccccc2)cc1)NO [Example 23]    13000
CN(O)C(=O)c1ccc(C(=O)N(C)C23CC4CC(CC(C4)C2)C3)cc1 [Example 55]    13400
Cc1ccc(N(C)C(=O)c2ccc(C(=O)NO)cc2)cc1C [Example 53]    14500
O=C(Cc1ccc(NC(=O)C23CC4CC(CC(C4)C2)C3)cc1)NO [Example 32]    18000
O=C(NO)c1ccc(C(=O)NC23CC4CC(CC(C4)C2)C3)cc1 [Example 43]    18900

Which Luciferase activity RARα reading was recorded for the molecule Cc1ccc(C(=O)N(C)c2ccc(C(=O)NO)cc2)cc1 [Example 13] ?
12000

// query: Cc1ccc(NC(=O)c2ccc(C(=O)NO)cc2)cc1C [Example 42]
14500

// query: CN(C(=O)C12CC3CC(CC(C3)C1)C2)c1ccc(C(=O)NO)cc1 [Example 21]
12500
